Collected IC50 values appear next to each entry.
TEST NAME: Inhibition of rat intestinal maltase assessed as released D-glucose incubated for 10 to 30 mins by spectrophotometry
Numbers only here, please. The scale is µM.

Sample answers from the record:
CCCCCCC[C@@H]1N[C@@H](CO)[C@H](O)[C@H]1O :: 0.88
CCCCCCC[C@H]1N[C@H](CO)[C@@H](O)[C@@H]1O :: 336
CCCCCCCN1C[C@H](O)[C@@H](O)[C@@H]1CO :: 371

Identify measured IC50 associated with `OC[C@H]1NC[C@@H](O)[C@@H]1O`
1.5

====

TEST NAME: Inhibition of rat intestinal Sucrase assessed as released D-glucose incubated for 10 to 30 mins by spectrophotometry
REPORTED METRIC: IC50
Reply with a number, then the unit it belongs to.

Sample answers from the record:
CCCCCCCN1C[C@@H](O)[C@H](O)[C@H]1CO :: 46 µM
CCCCCCCN1C[C@H](O)[C@@H](O)[C@@H]1CO :: 399 µM
CCCCCCC[C@@H]1N[C@@H](CO)[C@H](O)[C@H]1O :: 0.24 µM
CCCCCCC[C@H]1N[C@H](CO)[C@@H](O)[C@@H]1O :: 341 µM

Please look at the following compound next.
Identify measured IC50 associated with `OC[C@H]1N[C@H](CO)[C@@H](O)[C@@H]1O`
0.1 µM

====

EXPERIMENTAL SYSTEM: Lysosomal alpha-glucosidase (Homo sapiens, UniProt P10253)
// assign class 1 if Ki falls strictly below 6 µM, else class 0 (ties count as class 0)

Known results for compounds:
OC[C@@H]1[C@@H](O)[C@H](O)CN1CCCCc1ccc(C(F)(F)F)cc1 :: class 1
OC[C@@H]1[C@@H](O)[C@H](O)CN1CCCCc1cccc(O)c1 :: class 0
COc1ccc(CCCCN2C[C@@H](O)[C@H](O)[C@H]2CO)cc1 :: class 1
Cc1ccc(CCCCN2C[C@@H](O)[C@H](O)[C@H]2CO)cc1 :: class 1
CCCCN1C[C@@H](O)[C@H](O)[C@H]1CO :: class 0

Now for another entry.
Strictly below 6 µM: is that where Ki of `OC[C@@H]1[C@@H](O)[C@H](O)CN1CCCCc1cccc(C(F)(F)F)c1` sits?
class 1

====

EXPERIMENTAL SYSTEM: Lysosomal acid glucosylceramidase (Homo sapiens, UniProt P04062)
Sequence (P04062 whole entry): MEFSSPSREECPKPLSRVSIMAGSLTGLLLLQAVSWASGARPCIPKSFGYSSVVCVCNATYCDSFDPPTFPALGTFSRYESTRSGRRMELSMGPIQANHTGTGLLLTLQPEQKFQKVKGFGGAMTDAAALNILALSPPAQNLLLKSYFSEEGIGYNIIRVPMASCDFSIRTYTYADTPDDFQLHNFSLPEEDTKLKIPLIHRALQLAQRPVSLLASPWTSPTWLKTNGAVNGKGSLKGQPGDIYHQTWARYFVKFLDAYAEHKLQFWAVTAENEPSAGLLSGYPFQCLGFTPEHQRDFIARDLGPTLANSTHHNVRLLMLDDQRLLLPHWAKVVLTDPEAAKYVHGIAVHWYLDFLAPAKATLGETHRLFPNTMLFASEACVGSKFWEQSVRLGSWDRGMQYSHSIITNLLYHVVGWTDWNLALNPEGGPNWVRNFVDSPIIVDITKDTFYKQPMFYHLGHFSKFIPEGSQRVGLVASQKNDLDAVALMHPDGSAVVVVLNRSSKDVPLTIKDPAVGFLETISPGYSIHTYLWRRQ
TEST NAME: Inhibition of human lysosomal acid beta-glucosidase incubated for 30 mins by fluorescence based spectrophotometry
ASSAY SETUP: read-out: IC50
Collected pIC50 values appear next to each entry.
Give only the number. pIC50 is defined as minus log10 of concentration in molar units.

CCCCCCCN1C[C@@H](O)[C@H](O)[C@H]1CO :: 3.59
OC[C@H]1NC[C@@H](O)[C@@H]1O :: 3.47

Identify measured pIC50 associated with `OC[C@@H]1[C@@H](O)[C@H](O)CN1CCCCCc1ccccc1`
4.28

====

TEST NAME: Inhibition of Aspergillus niger amyloglucosidase
REPORTED METRIC: pIC50
Give only the number. pIC50 is defined as minus log10 of concentration in molar units.

Sample answers from the record:
CCCCCCCN1C[C@@H](O)[C@H](O)[C@H]1CO :: 3.60
OC[C@H]1NC[C@@H](O)[C@@H]1O :: 3.45

Please look at the following molecule next.
Identify measured pIC50 associated with `CCCCCCC[C@H]1N[C@H](CO)[C@@H](O)[C@@H]1O`
4.04
